# systemUnderTest: MYLK (human) (UniProt Q15746)
# Sequence (Q15746 whole entry, looked up): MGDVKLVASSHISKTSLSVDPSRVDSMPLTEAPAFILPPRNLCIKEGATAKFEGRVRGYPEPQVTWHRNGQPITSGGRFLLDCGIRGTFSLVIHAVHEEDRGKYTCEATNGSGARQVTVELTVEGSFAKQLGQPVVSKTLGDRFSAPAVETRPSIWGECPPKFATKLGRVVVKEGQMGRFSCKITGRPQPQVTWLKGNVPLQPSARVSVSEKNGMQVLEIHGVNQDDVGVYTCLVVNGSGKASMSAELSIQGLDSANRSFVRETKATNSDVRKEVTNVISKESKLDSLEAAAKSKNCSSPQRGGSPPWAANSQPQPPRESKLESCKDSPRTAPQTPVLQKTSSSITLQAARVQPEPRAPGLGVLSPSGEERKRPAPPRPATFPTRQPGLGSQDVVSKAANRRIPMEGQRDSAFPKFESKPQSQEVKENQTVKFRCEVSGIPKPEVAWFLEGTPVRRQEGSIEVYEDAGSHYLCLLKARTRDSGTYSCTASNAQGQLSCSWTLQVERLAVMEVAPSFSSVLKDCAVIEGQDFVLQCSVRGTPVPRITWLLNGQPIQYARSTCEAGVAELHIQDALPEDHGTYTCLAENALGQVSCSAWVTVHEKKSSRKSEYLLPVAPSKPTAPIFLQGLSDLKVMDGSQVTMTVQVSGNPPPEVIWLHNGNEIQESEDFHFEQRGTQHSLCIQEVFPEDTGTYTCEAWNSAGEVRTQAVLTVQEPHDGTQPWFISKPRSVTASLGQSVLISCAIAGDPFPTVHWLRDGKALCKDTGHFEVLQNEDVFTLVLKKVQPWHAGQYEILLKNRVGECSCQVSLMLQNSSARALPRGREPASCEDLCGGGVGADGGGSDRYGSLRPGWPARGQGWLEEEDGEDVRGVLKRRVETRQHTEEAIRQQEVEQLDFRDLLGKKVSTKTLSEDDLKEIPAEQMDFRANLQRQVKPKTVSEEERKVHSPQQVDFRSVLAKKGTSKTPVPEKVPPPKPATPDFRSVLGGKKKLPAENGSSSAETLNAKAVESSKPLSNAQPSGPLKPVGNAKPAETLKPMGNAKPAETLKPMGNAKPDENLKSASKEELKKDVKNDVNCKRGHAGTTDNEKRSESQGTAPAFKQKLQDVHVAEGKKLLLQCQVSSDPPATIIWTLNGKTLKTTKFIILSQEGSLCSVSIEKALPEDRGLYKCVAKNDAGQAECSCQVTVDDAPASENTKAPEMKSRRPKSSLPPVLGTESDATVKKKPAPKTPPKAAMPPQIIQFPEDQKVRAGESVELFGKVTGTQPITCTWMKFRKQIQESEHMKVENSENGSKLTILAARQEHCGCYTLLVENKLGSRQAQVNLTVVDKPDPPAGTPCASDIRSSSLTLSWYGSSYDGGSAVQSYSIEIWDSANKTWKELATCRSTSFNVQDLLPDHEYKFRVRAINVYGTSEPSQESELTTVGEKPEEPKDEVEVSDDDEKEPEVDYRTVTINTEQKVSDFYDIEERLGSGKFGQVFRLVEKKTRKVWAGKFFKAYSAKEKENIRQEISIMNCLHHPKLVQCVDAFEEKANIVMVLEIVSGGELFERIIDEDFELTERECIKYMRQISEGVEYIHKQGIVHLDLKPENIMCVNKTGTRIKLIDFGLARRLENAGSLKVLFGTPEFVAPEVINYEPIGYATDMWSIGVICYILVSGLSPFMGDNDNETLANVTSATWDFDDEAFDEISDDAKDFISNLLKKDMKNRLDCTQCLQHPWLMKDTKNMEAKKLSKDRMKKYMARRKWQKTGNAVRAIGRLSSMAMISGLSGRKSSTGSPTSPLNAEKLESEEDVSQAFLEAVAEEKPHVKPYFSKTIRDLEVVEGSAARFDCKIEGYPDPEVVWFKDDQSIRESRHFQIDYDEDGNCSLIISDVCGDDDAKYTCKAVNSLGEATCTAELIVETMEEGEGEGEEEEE
# assayInfo: KINOMEscan competition binding
# testConditions: compound 10.0 µM
measurementName: kinase still bound, per cent of control (%)

>>> experimentalresult("Cn1cc(C2=C(c3ccc(Cl)cc3Cl)C(=O)NC2=O)c2ccccc21")
64
>>> experimentalresult("Cc1cnc(-c2cnc(NCCNc3ccc(C#N)cn3)nc2-c2ccc(Cl)cc2Cl)[nH]1")
59
>>> experimentalresult("O=C1Nc2cc(Br)ccc2/C1=C1/Nc2ccccc2/C1=N\\O")
6.5
>>> experimentalresult("COc1ccc(CNC(=O)Nc2ncc([N+](=O)[O-])s2)cc1")
100

----------
# systemUnderTest: MAP3K2 (human) (UniProt Q9Y2U5)
# Sequence (Q9Y2U5 whole entry, looked up): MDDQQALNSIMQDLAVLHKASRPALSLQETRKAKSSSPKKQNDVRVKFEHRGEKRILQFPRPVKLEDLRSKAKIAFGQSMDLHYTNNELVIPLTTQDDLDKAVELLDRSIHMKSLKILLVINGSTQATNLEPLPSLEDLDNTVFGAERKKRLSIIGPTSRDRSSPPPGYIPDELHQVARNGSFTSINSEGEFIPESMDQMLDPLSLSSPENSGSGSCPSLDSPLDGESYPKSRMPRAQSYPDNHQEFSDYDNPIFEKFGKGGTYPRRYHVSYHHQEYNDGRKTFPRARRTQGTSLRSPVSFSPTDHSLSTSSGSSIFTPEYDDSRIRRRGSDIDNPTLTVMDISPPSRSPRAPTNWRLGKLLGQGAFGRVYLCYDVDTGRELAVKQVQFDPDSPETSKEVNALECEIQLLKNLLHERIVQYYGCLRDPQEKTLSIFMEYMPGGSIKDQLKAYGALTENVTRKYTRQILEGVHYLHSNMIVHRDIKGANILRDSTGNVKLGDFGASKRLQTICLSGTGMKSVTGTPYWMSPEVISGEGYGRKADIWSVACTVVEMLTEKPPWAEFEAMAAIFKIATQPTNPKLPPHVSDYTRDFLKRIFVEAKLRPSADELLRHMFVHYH
# assayInfo: KINOMEscan competition binding
# testConditions: compound 10.0 µM
Listing of entries alongside the reported kinase still bound, per cent of control.
measurementName: kinase still bound, per cent of control (%)

>>> experimentalresult("O=C1Nc2cc(Br)ccc2/C1=C1/Nc2ccccc2/C1=N\\O")
56
>>> experimentalresult("Cn1cc(C2=C(c3ccc(Cl)cc3Cl)C(=O)NC2=O)c2ccccc21")
100
>>> experimentalresult("COc1ccc(CNC(=O)Nc2ncc([N+](=O)[O-])s2)cc1")
96
>>> experimentalresult("Cc1cnc(-c2cnc(NCCNc3ccc(C#N)cn3)nc2-c2ccc(Cl)cc2Cl)[nH]1")
93
